Here's a batch of compounds along with measured pIC50 for Macrophage colony-stimulating factor 1 receptor (Homo sapiens, UniProt P07333).
To interpret pIC50, take it as minus log10 of a concentration measured in moles per litre.

| smiles-structure | reported-property | result-value |
| --- | --- | --- |
| COc1cnc2[nH]cc(Cc3ccc(NCc4ccc(C(F)(F)F)cc4)nc3)c2c1 | pIC50 | 7.21 |

Req: Which pIC50 is reported with Macrophage colony-stimulating factor 1 receptor (Homo sapiens, UniProt P07333) for this entry: "FC(F)(F)c1ccc(CNc2ccc(Cc3c[nH]c4ncccc34)cn2)cc1" ?
Resp: 7.55

====

assay: Drug uptake in tumor of recurrent GB patient at 1000 mg, po daily after 7 days; assay type: ADME, organism-based, Neoplasm; conditions: human, read-out: Drug uptake
reported-property: concentration at 168 h (ng/g)
All answers are understood in ng/g, so give the number only.

Req: Recorded concentration at 168 h of FC(F)(F)c1ccc(CNc2ccc(Cc3c[nH]c4ncc(Cl)cc34)cn2)cn1 [PEXIDARTINIB] , please.
Resp: 5500
